Biological target: T1, human PVRIG-his (AcroBiosystems, Cat NO. PVG-H52H4) (human, UniProt Q6DKI7 41-171, limits assumed)
T1 construct: also called human PVRIG protein
T1 sequence (looked up): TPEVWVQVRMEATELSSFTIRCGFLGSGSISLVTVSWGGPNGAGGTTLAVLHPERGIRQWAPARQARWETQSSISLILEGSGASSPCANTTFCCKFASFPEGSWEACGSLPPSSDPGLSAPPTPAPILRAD
Assay: SPR (BIAcore), antibody captured on Protein A chip, human PVRIG-His analyte
Test readout: log10 of kon (log10 of the value in M⁻¹ s⁻¹)
Parameter value (number): base-10 log of kon in M⁻¹ s⁻¹.

| Binder | log10 of kon |
| --- | --- |
| PVRIG-A118-H6 (Fc fusion, humanized variant of PVRIG-A118; also called A118.VH6; not shown: constant part not restated for the humanized forms; parents are VHH-hinge-CH2-CH3 of human IgG1; detected by anti-human) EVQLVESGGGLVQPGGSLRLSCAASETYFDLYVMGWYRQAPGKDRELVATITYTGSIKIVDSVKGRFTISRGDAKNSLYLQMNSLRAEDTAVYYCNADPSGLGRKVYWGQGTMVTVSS | 6.43 |

Enquiry: Please report the recorded log10 of kon for PVRIG-A105-H4 (Fc fusion, humanized variant of PVRIG-A105; also called A105.VH4; not shown: constant part not restated for the humanized forms; parents are VHH-hinge-CH2-CH3 of human IgG1; detected by anti-human) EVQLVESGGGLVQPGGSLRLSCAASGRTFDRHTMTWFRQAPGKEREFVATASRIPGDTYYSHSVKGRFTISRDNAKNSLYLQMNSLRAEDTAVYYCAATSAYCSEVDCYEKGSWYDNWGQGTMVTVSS .
Return: 5.99

Enquiry: Repeat with PVRIG-A50-H1c (Fc fusion, humanized variant of PVRIG-A50; also called A50.VH1c; not shown: constant part not restated for the humanized forms; parents are VHH-hinge-CH2-CH3 of human IgG1; detected by anti-human) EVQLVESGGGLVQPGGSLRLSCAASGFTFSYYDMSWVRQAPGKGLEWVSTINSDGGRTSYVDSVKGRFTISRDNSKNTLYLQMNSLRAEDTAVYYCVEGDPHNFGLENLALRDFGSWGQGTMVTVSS
Return: 5.64

Enquiry: Param item: PVRIG-A118-H1 (Fc fusion, humanized variant of PVRIG-A118; also called A118.VH1; not shown: constant part not restated for the humanized forms; parents are VHH-hinge-CH2-CH3 of human IgG1; detected by anti-human) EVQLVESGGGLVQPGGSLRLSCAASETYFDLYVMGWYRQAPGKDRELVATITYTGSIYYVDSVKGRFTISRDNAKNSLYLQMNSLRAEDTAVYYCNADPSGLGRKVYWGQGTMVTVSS
Return: 6.14

Enquiry: Also need PVRIG-A118-H2 (Fc fusion, humanized variant of PVRIG-A118; also called A118.VH2; not shown: constant part not restated for the humanized forms; parents are VHH-hinge-CH2-CH3 of human IgG1; detected by anti-human) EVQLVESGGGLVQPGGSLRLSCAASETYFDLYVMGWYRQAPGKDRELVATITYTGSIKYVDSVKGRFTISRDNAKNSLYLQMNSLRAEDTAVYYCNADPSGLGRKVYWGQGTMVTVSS , thanks.
Return: 6.20

Enquiry: Quick one: PVRIG-A105 (Fc fusion, heavy chain antibody VHH-hinge-CH2-CH3, human IgG1 constant part; not shown: human IgG1 hinge-CH2-CH3) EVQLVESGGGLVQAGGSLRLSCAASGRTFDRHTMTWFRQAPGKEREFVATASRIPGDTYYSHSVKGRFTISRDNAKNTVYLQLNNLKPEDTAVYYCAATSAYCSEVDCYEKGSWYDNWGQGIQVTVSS
Return: 5.86

Enquiry: And the next one, PVRIG-A50-H1d (Fc fusion, humanized variant of PVRIG-A50; also called A50.VH1d; not shown: constant part not restated for the humanized forms; parents are VHH-hinge-CH2-CH3 of human IgG1; detected by anti-human) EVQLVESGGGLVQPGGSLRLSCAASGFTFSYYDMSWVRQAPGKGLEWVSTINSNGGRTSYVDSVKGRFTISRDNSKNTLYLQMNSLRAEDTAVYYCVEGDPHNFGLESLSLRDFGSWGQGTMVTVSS ?
Return: 5.42

Enquiry: Quick one: PVRIG-A50-H1e (Fc fusion, humanized variant of PVRIG-A50; also called VH1e; not shown: constant part not restated for the humanized forms; parents are VHH-hinge-CH2-CH3 of human IgG1; detected by anti-human) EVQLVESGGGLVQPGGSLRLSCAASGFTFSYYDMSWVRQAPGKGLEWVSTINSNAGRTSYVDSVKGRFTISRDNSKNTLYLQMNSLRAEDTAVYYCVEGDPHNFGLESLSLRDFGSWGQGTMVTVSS
Return: 5.42
